This collection of values is drawn from the Human Domainome abundance scans (Beltran et al. 2025).

B1: Lysine-specific demethylase 2B, residues 656 to 722; numbered along this chain, Q8NHM5 (parent)
chain: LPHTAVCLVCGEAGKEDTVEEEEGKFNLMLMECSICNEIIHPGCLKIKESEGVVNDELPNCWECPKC

variants of: B1; assay: abundance fitness (aPCA) (normalised: wild type 0, dead -1); higher = more abundant; growth selection in yeast, the domain comes from the species named; details: Homo sapiens
Answer each item with its documented abundance fitness.
Just the number.

Endpoint output: abundance fitness of LPHTAVCLVCGEAGKEDTVEEEEGKFNLMLMEDSICNEIIHPGCLKIKESEGVVNDELPNCWECPKC . Value? -0.852

Entry LPHTAVCLVCGEAGKEDTVEEEEGKFNLMLMECSICNEIIHPGCLKICESEGVVNDELPNCWECPKC has what abundance fitness? -0.179

Value lookup for abundance fitness; key = LPHTAVCLVCGEAGKEDTVEEEEGKFNLMLMECSICNEIIHPGCLKIKESEGVVNDELPNCPECPKC -0.17

Name the recorded abundance fitness for LPHTAVCLVCGEAVKEDTVEEEEGKFNLMLMECSICNEIIHPGCLKIKESEGVVNDELPNCWECPKC . -0.139

# abundance fitness lookup, item LPHTAVCLVCGEAGKEDTVEEEEGKFNLMLMECSICNEIIHPGCLKIKNSEGVVNDELPNCWECPKC 0.262

Give the measured abundance fitness of LPHTAVCLVCGEAGKEDTVEEEEGTFNLMLMECSICNEIIHPGCLKIKESEGVVNDELPNCWECPKC . -0.432

Looking for the measured abundance fitness of LPHTAVCLVCGEAGKFDTVEEEEGKFNLMLMECSICNEIIHPGCLKIKESEGVVNDELPNCWECPKC , can you help? -0.497

Please look up its abundance fitness: LPHTAVCLVIGEAGKEDTVEEEEGKFNLMLMECSICNEIIHPGCLKIKESEGVVNDELPNCWECPKC -1.04

Data request, read-out abundance fitness, for LPHTAVCLVCGEAGKEDTVEEEESKFNLMLMECSICNEIIHPGCLKIKESEGVVNDELPNCWECPKC 0.15

Which abundance fitness is reported for this variant? LPHTAVCLVCGEAGKEDTVEEEEGKFNLMLMECSICNEIIHPGCLKIKESEGVVNDELRNCWECPKC 0.015

Looking for the measured abundance fitness of LPHTAVCLVCGEAGKEDTVEEEEGKFNLMLMECSICNEIIHPGCLKIKESEGVDNDELPNCWECPKC , can you help? -0.119

abundance fitness for LPHTAVCLVCGEAGKEDTVEEEEGKFNLMLMECSICNEIIHPGCLKIKASEGVVNDELPNCWECPKC ? 0.104

Field request: abundance fitness | item: LPHTAVCLVCGEAGKEDTVEEEEGKFNLMLMECSICNHIIHPGCLKIKESEGVVNDELPNCWECPKC -0.566

Quick one: abundance fitness for LPHTAVCLVCGEAGKEDTVHEEEGKFNLMLMECSICNEIIHPGCLKIKESEGVVNDELPNCWECPKC ? -0.176

Look at this variant and give its reported abundance fitness. LPHTAVCLVCGEAGKEDTVEEEEGKFNLMLMECSSCNEIIHPGCLKIKESEGVVNDELPNCWECPKC -0.364

What value of abundance fitness has been reported for the following variant? LPHTAVCLVCGEAGKEDTVEEEEGKFNNMLMECSICNEIIHPGCLKIKESEGVVNDELPNCWECPKC 0.476

Any idea what abundance fitness was measured for LPHTAVCLVCGEAGKEDTVEEQEGKFNLMLMECSICNEIIHPGCLKIKESEGVVNDELPNCWECPKC ? 0.086

Need abundance fitness, item LPHTAVCLMCGEAGKEDTVEEEEGKFNLMLMECSICNEIIHPGCLKIKESEGVVNDELPNCWECPKC -0.049

What does the record list as abundance fitness for LPHTAVCLVCGEAGKEDTVEEEEGKFNLMLMECSICNEIIHPGCLKIKESEGVVNDELPCCWECPKC ? -0.368

Which value of abundance fitness has been reported for LPHTAVCLVCGEAGKEDTVEIEEGKFNLMLMECSICNEIIHPGCLKIKESEGVVNDELPNCWECPKC in the records? -0.566

# query: abundance fitness of entry LPHTAVCLVCGEAGKEDTVEEEEGKFNLMLMECSICNEIIHPGCLKIKESEGVVNDESPNCWECPKC 0.051

Using the record for LPHTAVCLVCGEAGKEDTVEEEEGKFNLMLMECSICNEIIHKGCLKIKESEGVVNDELPNCWECPKC , report its abundance fitness. -0.285

Give its abundance fitness value. Item: LPHTAVCLVCWEAGKEDTVEEEEGKFNLMLMECSICNEIIHPGCLKIKESEGVVNDELPNCWECPKC -0.533

Name the recorded abundance fitness for LPHTAVCLVCGEAGKEDTVEEEEGKFNLMLMECSICNEIIHPGCLKIKESEGVVNDELPNCWECTKC . -0.634

Look up abundance fitness: LPHTAVCLVCGEAGKEDTVEEEEGKFNLMLMECSICNEIIHPGCLKINESEGVVNDELPNCWECPKC 0.222

Can you look up the measured abundance fitness of LPHTAVCLECGEAGKEDTVEEEEGKFNLMLMECSICNEIIHPGCLKIKESEGVVNDELPNCWECPKC for me? -0.053

Using the record for LPHTAVCLVCGEAGKEDTVEEEEGKFNLMLMECSICNEIIHPGCLKIKESEGVVCDELPNCWECPKC , report its abundance fitness. -0.202

What measured abundance fitness goes with LPHTAVCLVCGEAGKEDTVEEEEGKFNLMLMECSICNEIIHPGCLKISESEGVVNDELPNCWECPKC ? -0.155

Dear colleague, I am looking for the recorded abundance fitness of the following variant: LPHTAVCLVCGEAGKEDTVEEEEGKFNLMLMECSICNEIIHPGCLKIKESEGVVNHELPNCWECPKC 0.692

Name the reported abundance fitness value associated with the variant LPHTAVCLVCGEAGKEDTVEEEEGKFNLMLMECSICNECIHPGCLKIKESEGVVNDELPNCWECPKC -0.216

Can you share its abundance fitness? I mean this variant: LPHTAVCLVCGEAGKEDTVEEEEGKFNLMLMECSICNDIIHPGCLKIKESEGVVNDELPNCWECPKC -0.294

Please look up its abundance fitness: LPHTAVCLVCGEAGKEDTVEEEEGKFNLMLMECSICNEIIHPGCLKIKESEGQVNDELPNCWECPKC 0.164

Would you mind telling me what abundance fitness value was observed for LPHTAVCLVCGEAGKEDTVEEEEGKFNLMLMECSICNEIIHPGCLKIKESEGVVNAELPNCWECPKC ? 0.001

Quick one: abundance fitness for WPHTAVCLVCGEAGKEDTVEEEEGKFNLMLMECSICNEIIHPGCLKIKESEGVVNDELPNCWECPKC ? -0.426

Would you mind telling me what abundance fitness value was observed for LPHTAVCLQCGEAGKEDTVEEEEGKFNLMLMECSICNEIIHPGCLKIKESEGVVNDELPNCWECPKC ? -0.635

Could you tell me which abundance fitness is on file for LPHTAVCLVCGEAGKEDTVEEEEGKFNLMLMECSICNEIIHPGCLKIKESEGVVEDELPNCWECPKC ? -0.165

Reported abundance fitness for LPHTAVCLVCGEAGKEDTVEEEEGKFNLMLMECSICNEIIHPGCLKIKESEGVVNDELPNCNECPKC : what is it? -0.541

Suppose we examine the variant LPHTAVCLVCGEAGKEDTVEEYEGKFNLMLMECSICNEIIHPGCLKIKESEGVVNDELPNCWECPKC ; what abundance fitness value has been reported? -0.291

Fill in: abundance fitness of LPHTAVCLVCGEAGKMDTVEEEEGKFNLMLMECSICNEIIHPGCLKIKESEGVVNDELPNCWECPKC is ___ -0.148

Reported abundance fitness for LPHTAVCLVCGEAGKEDTVEEEEGKFNLMLMECSICNEIIHPGCLKIKESEVVVNDELPNCWECPKC : what is it? 0.018
